Values from PubChem BioAssay AID623942

- assayed.system: RecBCD enzyme subunit RecC (Escherichia coli (strain K12)) + RecBCD enzyme subunit RecB (Escherichia coli (strain K12)) (UniProt P07648+P08394)
- Sequence (P07648 whole entry, looked up): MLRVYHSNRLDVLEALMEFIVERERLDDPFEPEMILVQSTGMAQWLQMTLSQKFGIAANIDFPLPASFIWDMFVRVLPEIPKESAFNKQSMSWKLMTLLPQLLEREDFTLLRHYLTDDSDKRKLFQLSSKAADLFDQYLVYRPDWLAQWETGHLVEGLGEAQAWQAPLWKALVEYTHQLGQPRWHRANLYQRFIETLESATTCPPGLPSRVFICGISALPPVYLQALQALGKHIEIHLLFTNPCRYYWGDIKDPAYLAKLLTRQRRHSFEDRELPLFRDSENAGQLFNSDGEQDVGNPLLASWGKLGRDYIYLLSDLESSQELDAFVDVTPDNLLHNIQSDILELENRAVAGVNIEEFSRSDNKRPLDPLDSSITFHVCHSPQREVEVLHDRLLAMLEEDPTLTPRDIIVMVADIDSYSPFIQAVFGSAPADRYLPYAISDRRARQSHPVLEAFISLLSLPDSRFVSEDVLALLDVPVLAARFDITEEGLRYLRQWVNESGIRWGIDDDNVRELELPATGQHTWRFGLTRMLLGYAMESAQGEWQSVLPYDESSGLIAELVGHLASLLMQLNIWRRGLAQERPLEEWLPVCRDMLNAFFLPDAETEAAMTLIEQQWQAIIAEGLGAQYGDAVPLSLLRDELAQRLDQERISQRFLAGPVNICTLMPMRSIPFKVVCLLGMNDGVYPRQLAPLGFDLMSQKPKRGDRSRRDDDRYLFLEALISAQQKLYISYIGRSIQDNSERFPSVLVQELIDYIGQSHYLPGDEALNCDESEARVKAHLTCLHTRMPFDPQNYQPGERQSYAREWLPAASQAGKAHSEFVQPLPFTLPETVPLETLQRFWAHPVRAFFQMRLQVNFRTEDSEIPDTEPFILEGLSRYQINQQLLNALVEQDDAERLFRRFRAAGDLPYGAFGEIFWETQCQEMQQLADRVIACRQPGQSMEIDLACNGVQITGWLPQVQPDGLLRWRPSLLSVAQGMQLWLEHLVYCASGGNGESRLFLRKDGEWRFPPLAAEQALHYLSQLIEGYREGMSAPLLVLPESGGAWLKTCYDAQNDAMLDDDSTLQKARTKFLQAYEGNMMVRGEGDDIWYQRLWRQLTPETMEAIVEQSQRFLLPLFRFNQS
- Sequence (P08394 whole entry, looked up): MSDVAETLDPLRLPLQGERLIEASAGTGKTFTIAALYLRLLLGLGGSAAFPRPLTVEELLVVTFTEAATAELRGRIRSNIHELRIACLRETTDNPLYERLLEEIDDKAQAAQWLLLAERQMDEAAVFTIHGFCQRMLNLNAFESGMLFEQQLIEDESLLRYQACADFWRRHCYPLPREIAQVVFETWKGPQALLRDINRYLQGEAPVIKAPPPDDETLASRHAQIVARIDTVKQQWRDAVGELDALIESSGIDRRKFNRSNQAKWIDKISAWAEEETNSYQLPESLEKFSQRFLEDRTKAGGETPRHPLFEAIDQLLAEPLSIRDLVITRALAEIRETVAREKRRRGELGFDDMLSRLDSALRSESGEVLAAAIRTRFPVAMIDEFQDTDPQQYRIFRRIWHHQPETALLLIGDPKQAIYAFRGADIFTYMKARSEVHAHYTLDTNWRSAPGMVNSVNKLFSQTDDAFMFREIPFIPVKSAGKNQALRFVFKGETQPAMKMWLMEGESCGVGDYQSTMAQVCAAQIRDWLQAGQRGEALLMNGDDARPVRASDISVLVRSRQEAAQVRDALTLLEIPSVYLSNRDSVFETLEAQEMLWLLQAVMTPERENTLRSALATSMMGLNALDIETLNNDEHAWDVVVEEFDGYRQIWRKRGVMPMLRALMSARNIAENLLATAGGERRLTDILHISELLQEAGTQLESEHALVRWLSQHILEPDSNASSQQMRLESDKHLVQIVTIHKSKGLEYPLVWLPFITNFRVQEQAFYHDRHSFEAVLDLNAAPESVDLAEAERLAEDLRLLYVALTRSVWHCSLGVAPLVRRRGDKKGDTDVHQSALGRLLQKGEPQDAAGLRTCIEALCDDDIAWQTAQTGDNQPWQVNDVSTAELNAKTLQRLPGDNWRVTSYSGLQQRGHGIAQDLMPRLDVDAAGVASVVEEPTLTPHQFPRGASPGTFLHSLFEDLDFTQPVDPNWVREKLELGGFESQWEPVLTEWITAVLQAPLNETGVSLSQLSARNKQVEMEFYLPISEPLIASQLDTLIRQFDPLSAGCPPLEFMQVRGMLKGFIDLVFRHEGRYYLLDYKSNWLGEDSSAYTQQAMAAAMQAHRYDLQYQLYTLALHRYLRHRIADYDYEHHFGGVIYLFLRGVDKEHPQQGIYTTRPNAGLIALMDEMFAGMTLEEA
- protocol.notes: RecBCD helicase and Chi cutting inhibitors, dose response, counter-screen for AddAB inhibitor project, biochemical, radioactive gel readout (AID 623942)
- measurement.conditions: purified RecBCD, Chi cutting/unwinding
Activity calls are given as the source filed them.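 How the source made its calls: active means IC50 at or below 50 µM; inactive means IC50 above 50 µM.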
Answer with one of the outcomes given here: active, inactive

Solved entries (count: 10):
{"molecule.smiles": "O=C(OCC(=O)c1cccs1)c1ccc([N+](=O)[O-])o1", "assigned.category": "inactive"}
{"molecule.smiles": "CCn1cc(C(=O)O)c(=O)c2cc(F)c(N3CCN(C(=S)Nc4ccccc4C(F)(F)F)CC3)cc21", "assigned.category": "active"}
{"molecule.smiles": "O=C(NCc1cccnc1)c1ccc([N+](=O)[O-])o1", "assigned.category": "inactive"}
{"molecule.smiles": "C=CCn1c(Sc2ncc([N+](=O)[O-])s2)n[nH]c1=O", "assigned.category": "inactive"}
{"molecule.smiles": "Cc1ccc2nc(/C(C#N)=C\\c3ccc([N+](=O)[O-])o3)[nH]c2c1", "assigned.category": "active"}
{"molecule.smiles": "O=C(Nc1ncccn1)c1ccc([N+](=O)[O-])o1", "assigned.category": "active"}
{"molecule.smiles": "CC(=O)Nc1ccc2nc(NC(=O)c3ccc([N+](=O)[O-])o3)sc2c1", "assigned.category": "inactive"}
{"molecule.smiles": "Cc1cccnc1NC(=O)c1ccc([N+](=O)[O-])o1", "assigned.category": "inactive"}
{"molecule.smiles": "O=C(Nc1cccc(NC(=O)c2ccccc2Cl)c1)c1ccc([N+](=O)[O-])o1", "assigned.category": "active"}
{"molecule.smiles": "NC(=O)c1ccsc1NC(=O)COC(=O)c1ccc([N+](=O)[O-])o1", "assigned.category": "inactive"}

Query :: Name the outcome recorded for N#Cc1c(NC(=O)c2ccc([N+](=O)[O-])o2)sc2c1CCC2 in the assay.
Result :: active

Query :: Outcome logged for CCn1cc(C(=O)O)c(=O)c2cnc(N3CCN(C(=S)Nc4ccccc4C(F)(F)F)CC3)nc21 in this assay:
Result :: active

Query :: Recorded test call requested for O=C(Nc1ccc(N2CCOCC2)cc1)c1ccc([N+](=O)[O-])o1
Result :: inactive

Query :: Per the records of this test, what outcome belongs to CCn1cc(C(=O)O)c(=O)c2cnc(N3CCN(C(=S)Nc4cccc(C(F)(F)F)c4)CC3)nc21 ?
Result :: active

Query :: How did this test come out for CCn1cc(C(=O)O)c(=O)c2cc(F)c(N3CCN(C(=S)Nc4cccc(C(F)(F)F)c4)CC3)cc21 ?
Result :: active
